# Species on record: Homo sapiens
# TEST: Antagonist activity at IL-15Ralpha (unknown origin) assessed as inhibition of IL-15/IL-15Ralpha complex formation at 20 ug/ml using TMB as substrate incubated for 1 hr and measured after 1 hr by ELISA relative to control
# ASSAY CONDITIONS: filed as antagonist, dose 20.0 µg/ml
Hi there, I'd appreciate the recorded inhibition for every entry that follows.
Give the value in % but do not write % after it.

Input line: Suppose we examine the compound CSCC[C@H](NC(=O)[C@@H](C)NC(=O)[C@@H](NC(=O)[C@@H](NC(=O)[C@@H](N)CCCCN)C(C)C)[C@@H](C)O)C(=O)N[C@@H](CCCCN)C(=O)N[C@@H](CSSC[C@H](NC(=O)[C@H](CCCCN)NC(=O)[C@H](CCSC)NC(=O)[C@@H](C)NC(=O)[C@@H](NC(=O)[C@@H](NC(=O)[C@@H](N)CCCCN)C(C)C)[C@@H](C)O)C(=O)N[C@@H](Cc1ccccc1)C(=O)N[C@@H](CC(C)C)C(=O)N[C@@H](CC(C)C)C(=O)O)C(=O)N[C@@H](Cc1ccccc1)C(=O)N[C@@H](CC(C)C)C(=O)N[C@@H](CC(C)C)C(=O)O ; what inhibition value has been reported?
Output line: 96

Input line: Suppose we examine the compound CSCC[C@H](NC(=O)[C@@H](C)NC(=O)[C@@H](NC(=O)[C@@H](NC(=O)[C@H](N)CCCCN)C(C)C)[C@@H](C)O)C(=O)N[C@@H](CCCCN)C(=O)N[C@@H](CSSC[C@H](NC(=O)[C@H](CCCCN)NC(=O)[C@H](CCSC)NC(=O)[C@@H](C)NC(=O)[C@@H](NC(=O)[C@@H](NC(=O)[C@H](N)CCCCN)C(C)C)[C@@H](C)O)C(=O)N[C@@H](Cc1ccccc1)C(=O)N[C@@H](CC(C)C)C(=O)N[C@@H](CC(C)C)C(=O)O)C(=O)N[C@@H](Cc1ccccc1)C(=O)N[C@@H](CC(C)C)C(=O)N[C@@H](CC(C)C)C(=O)O ; what inhibition value has been reported?
Output line: 92

Input line: Suppose we examine the compound CSCC[C@H](NC(=O)[C@H](C)NC(=O)[C@@H](NC(=O)[C@@H](NC(=O)[C@@H](N)CCCCN)C(C)C)[C@@H](C)O)C(=O)N[C@@H](CCCCN)C(=O)N[C@@H](CS)C(=O)N[C@@H](Cc1ccccc1)C(=O)N[C@@H](CC(C)C)C(=O)N[C@@H](CC(C)C)C(=O)O ; what inhibition value has been reported?
Output line: 70

Input line: Suppose we examine the compound CSCC[C@H](NC(=O)[C@@H](C)NC(=O)[C@@H](NC(=O)[C@@H](NC(=O)[C@H](N)CCCCN)C(C)C)[C@@H](C)O)C(=O)N[C@@H](CCCCN)C(=O)N[C@@H](CS)C(=O)N[C@@H](Cc1ccccc1)C(=O)N[C@@H](CC(C)C)C(=O)N[C@@H](CC(C)C)C(=O)O ; what inhibition value has been reported?
Output line: 89

Input line: Suppose we examine the compound CSCC[C@H](NC(=O)[C@@H](C)NC(=O)[C@@H](NC(=O)[C@@H](NC(=O)[C@@H](N)CCCCN)C(C)C)[C@@H](C)O)C(=O)N[C@@H](CCCCN)C(=O)N[C@@H](CS)C(=O)N[C@@H](Cc1ccccc1)C(=O)N[C@@H](CC(C)C)C(=O)N[C@@H](CC(C)C)C(=O)O ; what inhibition value has been reported?
Output line: 92
